procedure-summary: Cytotoxicity against human Hep3B cells after 72 hrs by MTT assay
Format: functional, cell-based, Hep 3B2
# IC50 values compiled below

# line-notation, reported
measured = [
    ("CO[C@@H]1O[C@H](C(=O)O)[C@@H](O)[C@H](O)[C@H]1OC(=O)CCC(=O)O[C@@H](C(=O)O[C@H]1C[C@@]2(O)[C@@H](OC(=O)c3ccccc3)[C@@H]3[C@]4(OC(C)=O)CO[C@@H]4C[C@H](O)[C@@]3(C)C(=O)[C@H](OC(C)=O)C(=C1C)C2(C)C)[C@@H](NC(=O)c1ccccc1)c1ccccc1", "> 100 µM"),
    ("CO[C@@H]1O[C@H](CO)[C@@H](O)[C@H](O)[C@H]1OCCCC(=O)O[C@@H](C(=O)O[C@H]1C[C@@]2(O)[C@@H](OC(=O)c3ccccc3)[C@@H]3[C@]4(OC(C)=O)CO[C@@H]4C[C@H](O)[C@@]3(C)C(=O)[C@H](OC(C)=O)C(=C1C)C2(C)C)[C@@H](NC(=O)c1ccccc1)c1ccccc1", "> 100 µM"),
]

For the next question, use this compound.
### Prompt Quick one: IC50 for CO[C@@H]1O[C@H](C(=O)O)[C@@H](O)[C@H](O)[C@H]1OCCCC(=O)O[C@@H](C(=O)O[C@H]1C[C@@]2(O)[C@@H](OC(=O)c3ccccc3)[C@@H]3[C@]4(OC(C)=O)CO[C@@H]4C[C@H](O)[C@@]3(C)C(=O)[C@H](OC(C)=O)C(=C1C)C2(C)C)[C@@H](NC(=O)c1ccccc1)c1ccccc1 ?
### Response > 100 µM

* * *

Item-by-item account of pIC50
procedure-summary: Cytotoxicity against CHOK1 cells after 72 hrs by MTT assay
Type: cell-based
condition-description: Cricetulus griseus, CHO-K1, 72 h
pIC50: −log10 of the molar value.

# line-notation, pIC50
measured = [
    ("CO[C@@H]1O[C@H](CO)[C@@H](O)[C@H](O)[C@H]1OCCCC(=O)O[C@@H](C(=O)O[C@H]1C[C@@]2(O)[C@@H](OC(=O)c3ccccc3)[C@@H]3[C@]4(OC(C)=O)CO[C@@H]4C[C@H](O)[C@@]3(C)C(=O)[C@H](OC(C)=O)C(=C1C)C2(C)C)[C@@H](NC(=O)c1ccccc1)c1ccccc1", "< 4.00"),
]

### Prompt // pIC50 lookup, key: CO[C@@H]1O[C@H](C(=O)O)[C@@H](O)[C@H](O)[C@H]1OC(=O)CCC(=O)O[C@@H](C(=O)O[C@H]1C[C@@]2(O)[C@@H](OC(=O)c3ccccc3)[C@@H]3[C@]4(OC(C)=O)CO[C@@H]4C[C@H](O)[C@@]3(C)C(=O)[C@H](OC(C)=O)C(=C1C)C2(C)C)[C@@H](NC(=O)c1ccccc1)c1ccccc1
### Response < 4.00

### Prompt Now the same for CO[C@@H]1O[C@H](CO)[C@@H](O)[C@H](O)[C@H]1OC(=O)CCC(=O)O[C@@H](C(=O)O[C@H]1C[C@@]2(O)[C@@H](OC(=O)c3ccccc3)[C@@H]3[C@]4(OC(C)=O)CO[C@@H]4C[C@H](O)[C@@]3(C)C(=O)[C@H](OC(C)=O)C(=C1C)C2(C)C)[C@@H](NC(=O)c1ccccc1)c1ccccc1
### Response < 4.00
